Tested on: K-562 leukemia
method_summary: NCI-60 one-dose screen, 48 h (100 = growth as untreated, 0 = no growth, -100 = all killed)
measurement_parameters: 10 µM
Compounds without any hit were thinned out: in the full panel of roughly 83,000, 20% have a hit.
assay_readout: growth (%)
Numbers only, in %.

Example results:
Could you tell me which growth is on file for C[C@@H]1CCC/C=C/[C@H]2C[C@@H](O)C[C@@H]2[C@@H](O)/C=C/C(=O)O1 ?
15

Could you tell me which growth is on file for CC1=C2C(=C[C@@](C)(COC(=O)c3ccc(S(=O)(=O)F)cc3)[C@@H]2O)C(=O)[C@](C)(O)C12CC2 ?
6.74

Could you tell me which growth is on file for CCC(C)[C@H]1C(=O)O[C@H](C(C)C)C(=O)N(C)[C@@H](C(C)C)C(=O)O[C@H](C(C)C)C(=O)N(C)[C@@H](C(C)C)C(=O)O[C@H](C(C)C)C(=O)N1C (some centres not stated) ?
6.74

Give growth for each listed item.
1. CC1=C[C@H]2O[C@@H]3C[C@H]4OC(=O)/C=C\C=C\[C@H]([C@@H](C)O)OCC[C@@H](C)[C@H](O)C(=O)OC[C@@]2(CC1)[C@]4(C)[C@]31CO1
2. CC1=C2C(=C[C@@](C)(COC(=O)c3ccc(S(=O)(=O)F)cc3)[C@@H]2OC(=O)c2ccc(S(=O)(=O)F)cc2)C(=O)[C@](C)(O)C12CC2
3. CC1=C2C(=C[C@@](C)(C=O)[C@@H]2O)C(=O)[C@](C)(O)C12CC2
4. N#Cc1c(-n2c(Br)c(Br)c3cc(Br)ccc32)[nH]c2c(Br)cc(Br)cc12

1: -10.1; 2: 23.8; 3: 24.2; 4: 7.11

###

Tested on: 786-0 renal
method_summary: NCI-60 one-dose screen, 48 h (100 = growth as untreated, 0 = no growth, -100 = all killed)
measurement_parameters: 10 µM
Method: Cells are grown in 96 well plates and exposed to the test compound for 48 hours. Compounds are tested at a single concentration, which is 10^-5 M for most compounds. The reported endpoint is percent growth (GI% or GIPRCNT), where numbers from 0 - 100% represent growth inhibition, and numbers from -100% - 0 represent cell death. For example, a value of 40 represents 60% growth inhibition. A value of 0 means no net growth occurred over the course of the experiment. […]
Compounds without any hit were thinned out: in the full panel of roughly 83,000, 20% have a hit.
// NB: equality with 20% counts as 0; only growth strictly below is 1

Record excerpt, results attached:
In plain terms, does CC1=C(CCC=NNC(N)=O)C2=C(C)C3(CC3)[C@@](C)(O)C(=O)C2=C1 come in under 20% for growth?
1

In plain terms, does CCC(C)[C@H]1C(=O)O[C@H](C(C)C)C(=O)N(C)[C@@H](C(C)C)C(=O)O[C@H](C(C)C)C(=O)N(C)[C@@H](C(C)C)C(=O)O[C@H](C(C)C)C(=O)N1C (stereo partly specified) come in under 20% for growth?
0

---
In plain terms, does CC(=O)O[C@@H]1[C@@H]2O[C@H]2[C@@](C)(O)C(=O)[C@@H](C)C/C=C/[C@H]2[C@@H]3O[C@]3(C)[C@@H](C)C3[C@H](Cc4ccccc4)NC(=O)[C@@]312 (stereo partly specified) come in under 20% for growth?
0

In plain terms, does CC1=C[C@H]2O[C@@H]3C[C@@H](O)[C@](C)([C@@]2(C)CC1)[C@@]31CO1 come in under 20% for growth?
0

In plain terms, does N#Cc1nc(-c2ccccc2)oc1N1CCC(S(=O)(=O)F)CC1 come in under 20% for growth?
0

In plain terms, does C[C@@H]1C[C@H]2C(=O)O[C@@H](C)C(NC(=O)[C@H](Cc3cc(F)cc(F)c3)NC(=O)Nc3ccc(OS(=O)(=O)F)cc3)C(=O)N3CCC[C@H]3C(=O)N3CCO[C@H](C)[C@H]3C(=O)N[C@@H](CO)C(=O)N2C1 (stereo partly specified) come in under 20% for growth?
0

In plain terms, does O=C(CCCc1ccc(N(CCCl)CCCl)cc1)OCc1ccccc1 come in under 20% for growth?
0

In plain terms, does CC1=C2C(=O)[C@](C)(CO)C=C2C(=O)[C@](C)(O)C12CC2 come in under 20% for growth?
1

In plain terms, does CC1=C(CN(O)C(N)=O)C2=C(C)C3(CC3)[C@](C)(O)C(=O)C2=C1 come in under 20% for growth?
1

In plain terms, does C=C1[C@@H](C)C2[C@H](Cc3ccccc3)NC(=O)[C@]23[C@H](OC(C)=O)/C=C/[C@@](C)(O)C(=O)[C@@H](C)C/C=C/[C@H]3[C@@H]1O (stereo partly specified) come in under 20% for growth?
0

In plain terms, does NC1CCc2cc(O)c(O)cc2C1 (stereo unspecified) come in under 20% for growth?
0

In plain terms, does COC1[C@@H]2C[C@H]3C(C)(C)O[C@@](C/C=C(/C)C(=O)O)(C2=O)[C@]32Oc3c(CC=C(C)C)c4c(c(O)c3C(=O)[C@H]12)C=CC(C)(C)O4 (stereo partly specified) come in under 20% for growth?
1

In plain terms, does CC(=O)O[C@@H]1C[C@H]2O[C@@H]3C=C(C)CC[C@]3(C)[C@]1(C)[C@]21CO1 come in under 20% for growth?
1

In plain terms, does CC1=C[C@H]2O[C@@H]3C[C@H]4OC(=O)/C=C\C=C\[C@H]([C@@H](C)O)OCC[C@@H](C)[C@H](O)C(=O)OC[C@@]2(CC1)[C@]4(C)[C@]31CO1 come in under 20% for growth?
1

In plain terms, does CN1C(=O)[C@]23SSC1(C)C(=O)N2[C@H]1Nc2ccccc2C1([C@@]12c4ccccc4N[C@@H]1N1C(=O)C4(C)SS[C@]1(C(=O)N4C)[C@H]2O)[C@@H]3O (stereo partly specified) come in under 20% for growth?
1

In plain terms, does CC(C)(O)/C=C/C(=O)[C@](C)(O)[C@H]1[C@H](O)C[C@@]2(C)[C@H]3CC=C4[C@@H](C[C@H](O)C(=O)C4(C)C)[C@]3(C)C(=O)C[C@]12C come in under 20% for growth?
1

In plain terms, does COC(=O)[C@H]1[C@@H](O)[C@@]2(O)c3c(OC)cc(OC)cc3O[C@@]2(c2ccc(OC)cc2)[C@@H]1c1ccccc1 come in under 20% for growth?
1

In plain terms, does CC(C)=CCc1c2c(c(O)c3c1O[C@]14C(=C[C@@H]5C[C@H]1C(C)(C)O[C@@]4(C/C=C(/C)C(=O)O)C5=O)C3=O)C=CC(C)(C)O2 come in under 20% for growth?
1

In plain terms, does COc1cccc2c1cc([N+](=O)[O-])c1c(C(=O)O)cc3c(c12)OCO3 come in under 20% for growth?
0

In plain terms, does CC1=C2C(=C[C@@](C)(COC(=O)c3ccc(S(=O)(=O)F)cc3)[C@@H]2OC(=O)c2ccc(S(=O)(=O)F)cc2)C(=O)[C@](C)(O)C12CC2 come in under 20% for growth?
1
